# Test Target: 5-hydroxytryptamine receptor 3A (Mus musculus, UniProt P23979, H184Y)
# Sequence (P23979 24-489 H185Y limits assumed): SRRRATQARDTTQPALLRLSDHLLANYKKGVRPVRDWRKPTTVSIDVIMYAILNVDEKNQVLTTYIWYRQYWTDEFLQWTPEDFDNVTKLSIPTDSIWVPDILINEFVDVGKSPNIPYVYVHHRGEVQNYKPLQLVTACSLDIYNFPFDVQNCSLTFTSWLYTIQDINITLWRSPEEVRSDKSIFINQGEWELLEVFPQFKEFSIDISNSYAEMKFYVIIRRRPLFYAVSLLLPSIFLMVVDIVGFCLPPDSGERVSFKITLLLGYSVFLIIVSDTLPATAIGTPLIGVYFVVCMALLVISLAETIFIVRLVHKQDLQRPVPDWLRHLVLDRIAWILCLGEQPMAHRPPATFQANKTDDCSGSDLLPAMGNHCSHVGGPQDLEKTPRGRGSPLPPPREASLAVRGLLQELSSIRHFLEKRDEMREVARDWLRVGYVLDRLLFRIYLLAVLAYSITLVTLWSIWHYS
# Procedure Text: Agonist activity at mouse 5HT3A H185Y receptor mutant expressed in Xenopus oocyte by two-electrode voltage patch method
# Format: functional
Measure: EC50 (µM)
Quick note: give the figure in µM, leave out the unit.

Query: Given the molecule N=C(N)NC(=N)Nc1cccc(Cl)c1 , write its reported EC50.
Result: 5.4

###

# Test Target: 5-hydroxytryptamine receptor 3A (Mus musculus, UniProt P23979, W182F)
# Sequence (P23979 24-489 W183F limits assumed): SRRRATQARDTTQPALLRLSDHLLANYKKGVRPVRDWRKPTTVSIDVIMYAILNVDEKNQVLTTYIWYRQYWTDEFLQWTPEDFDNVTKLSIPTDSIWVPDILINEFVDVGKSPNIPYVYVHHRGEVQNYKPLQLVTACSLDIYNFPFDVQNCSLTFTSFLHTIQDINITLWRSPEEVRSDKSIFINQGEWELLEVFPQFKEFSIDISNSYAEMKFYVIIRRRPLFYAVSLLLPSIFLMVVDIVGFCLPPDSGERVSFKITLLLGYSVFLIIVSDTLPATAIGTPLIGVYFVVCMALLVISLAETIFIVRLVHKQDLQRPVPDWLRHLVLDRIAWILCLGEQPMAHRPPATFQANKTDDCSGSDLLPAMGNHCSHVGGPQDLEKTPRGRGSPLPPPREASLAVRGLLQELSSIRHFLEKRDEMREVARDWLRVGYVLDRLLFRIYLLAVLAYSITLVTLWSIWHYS
# Procedure Text: Agonist activity at mouse 5HT3A W183F receptor mutant expressed in Xenopus oocyte by two-electrode voltage patch method
Measure: pEC50
# pEC50 = -log10(concentration in molar units)

Query: Identify the reported pEC50 for the following entry. N=C(N)NC(=N)Nc1cccc(Cl)c1
Result: 4.80

###

# Test Target: 5-hydroxytryptamine receptor 3A (Mus musculus, UniProt P23979, I189V)
# Sequence (P23979 24-489 I190V limits assumed): as the sequence (P23979 24-489 W183F limits assumed) above, with F160W, I167V counted along it
# Procedure Text: Agonist activity at mouse 5HT3A I190V receptor mutant expressed in Xenopus oocyte by two-electrode voltage patch method
Measure: EC50 (nM)
Just the number in nM, nothing appended.

Query: Read the entry N=C(N)NC(=N)Nc1cccc(Cl)c1 and write its reported EC50.
Result: 2000

###

# Test Target: 5-hydroxytryptamine receptor 3A (Mus musculus, UniProt P23979, Y152F)
# Sequence (P23979 24-489 Y153F limits assumed): as the sequence (P23979 24-489 H185Y limits assumed) above, with Y130F, Y162H counted along it
# Procedure Text: Agonist activity at mouse 5HT3A Y153F receptor mutant expressed in Xenopus oocyte by two-electrode voltage patch method
Measure: EC50 (µM)
Your answer is read as µM, so omit the unit and give the number.

Query: Name the recorded EC50 of the molecule listed here: N=C(N)NC(=N)Nc1cccc(Cl)c1
Result: 2.2

###

# Test Target: 5-hydroxytryptamine receptor 3A (Mus musculus, UniProt P23979, Y152A)
# Sequence (P23979 24-489 Y153A limits assumed): as the sequence (P23979 24-489 H185Y limits assumed) above, with Y130A, Y162H counted along it
# Procedure Text: Agonist activity at mouse 5HT3A Y153A receptor mutant expressed in Xenopus oocyte by two-electrode voltage patch method
Measure: pEC50
Remember the convention: pEC50 equals -log10 of concentration in molar.

Query: Look up 5-hydroxytryptamine receptor 3A (Mus musculus, UniProt P23979, Y152A) data: pEC50 of N=C(N)NC(=N)Nc1cccc(Cl)c1 , then report it.
Result: 5.12

###

# Test Target: 5-hydroxytryptamine receptor 3A (Mus musculus, UniProt P23979, I186A)
# Procedure Text: Agonist activity at mouse 5HT3A I187A receptor mutant expressed in Xenopus oocyte by two-electrode voltage patch method
Measure: EC50

Query: Consider the molecule N=C(N)NC(=N)Nc1cccc(Cl)c1 and give its recorded EC50.
Result: 52 µM

###

# Test Target: 5-hydroxytryptamine receptor 3A (Mus musculus, UniProt P23979, H184F)
# Procedure Text: Agonist activity at mouse 5HT3A H185F receptor mutant expressed in Xenopus oocyte by two-electrode voltage patch method
Measure: EC50 (nM)
Could you give me the number in nM? Just the number is fine.

Query: State its EC50 for this compound: N=C(N)NC(=N)Nc1cccc(Cl)c1
Result: 2500
